biological target: human P2X2/3 receptors (Homo sapiens, UniProt P56373+Q9UBL9); construct: expressed in transfected cells; host or cells: human astrocytoma 1321N1 (1312N1 [sic]); assay: Intracellular calcium measurement, antagonist activity at human P2X2/3 receptors (hP2X23 1321N1), Fluo8; type: cell-based; settings: ratio of column 4) hP2X2/3 to column 3) hP2X3, 1321N1
Sequence (P56373 whole entry): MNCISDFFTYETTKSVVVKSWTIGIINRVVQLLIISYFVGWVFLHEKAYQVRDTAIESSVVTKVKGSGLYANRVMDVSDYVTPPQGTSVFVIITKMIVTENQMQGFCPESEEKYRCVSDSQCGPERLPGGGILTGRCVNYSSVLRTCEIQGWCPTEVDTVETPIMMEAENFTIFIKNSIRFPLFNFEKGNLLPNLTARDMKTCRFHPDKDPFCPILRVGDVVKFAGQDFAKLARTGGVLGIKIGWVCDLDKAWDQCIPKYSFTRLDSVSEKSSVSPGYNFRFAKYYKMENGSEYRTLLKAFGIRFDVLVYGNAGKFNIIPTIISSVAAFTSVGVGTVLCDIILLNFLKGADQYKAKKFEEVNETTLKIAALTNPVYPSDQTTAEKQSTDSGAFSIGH
Sequence (Q9UBL9 whole entry): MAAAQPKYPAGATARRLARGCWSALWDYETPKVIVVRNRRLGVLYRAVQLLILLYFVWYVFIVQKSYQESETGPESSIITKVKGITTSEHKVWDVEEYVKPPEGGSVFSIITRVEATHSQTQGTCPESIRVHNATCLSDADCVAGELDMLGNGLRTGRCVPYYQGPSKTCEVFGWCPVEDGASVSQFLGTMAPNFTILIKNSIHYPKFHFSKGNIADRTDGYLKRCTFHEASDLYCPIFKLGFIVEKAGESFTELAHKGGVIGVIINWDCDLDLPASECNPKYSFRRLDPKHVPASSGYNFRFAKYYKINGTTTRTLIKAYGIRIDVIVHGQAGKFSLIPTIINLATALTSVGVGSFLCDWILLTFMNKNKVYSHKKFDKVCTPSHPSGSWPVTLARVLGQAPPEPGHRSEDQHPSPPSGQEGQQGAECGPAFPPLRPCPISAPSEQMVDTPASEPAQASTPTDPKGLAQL
quantity.measured: hP2X23/hP2X3* Selectivity (1321N1)

See these solved cases before continuing.
[[record]]
molecule = "CC(C)N1Cc2c(n(CC(=O)Nc3ccc(F)cn3)c3cc(C4CCN(C(=O)OC(C)(C)C)C4)nn3c2=O)C1=O (racemic)"
quantity_measured = "hP2X23/hP2X3* Selectivity (1321N1)"
assay_value = 78

[[record]]
molecule = "CCc1cc2n(CC(=O)Nc3ccc(F)cn3)c3c(c(=O)n2n1)CN(CC1CCCN1C(=O)OC(C)(C)C)C3=O (stereo not shown)"
quantity_measured = "hP2X23/hP2X3* Selectivity (1321N1)"
assay_value = 61


a = CC(C)[C@H](C)N1Cc2c(n(CC(=O)Nc3ccc(Cl)cn3)c3cc(C(C)(C)C)nn3c2=O)C1=O
b = CCNc1cc2n(CC(=O)Nc3ccc(F)cn3)c3c(c(=O)n2n1)CN(C(C)C)C3=O
c = COC[C@@H](C)N1Cc2c(n(CC(=O)Nc3ccc(F)cn3)c3cc(C(C)(C)C)nn3c2=O)C1=O
Request: Put the items in order so that reported hP2X23/hP2X3* Selectivity (1321N1) rises from first to last. Sort and list the labels as requested.
Response: a, b, c
(a: 39, b: 85, c: 213)
